Would you kindly list optical density for each of these binders?
- target under test: Mouse ACVR2A (mouse, UniProt P27038 20-135, limits assumed); further: test concentration or dose not given here
- Sequence (P27038 20-135 limits assumed): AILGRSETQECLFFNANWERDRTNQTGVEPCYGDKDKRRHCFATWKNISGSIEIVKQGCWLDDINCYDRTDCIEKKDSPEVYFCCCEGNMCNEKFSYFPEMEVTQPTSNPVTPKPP
- run description: ELISA
Supply the numeric figure in OD, leaving out any unit text.

Notebook: 371_A06 (antibody, V domains shown) VH: EVQLLESGGGLVQPGGSLRLSCAASGFTFSSYGMNWVRQAPGKGLEWVAGINYNGGYTSYADSVKGRFTISRDNSKNTLYLQMNSLRAEDTAVYYCARSANWHDTALDYWGQGTLVTVSS VL: DIQMTQSPSSLSASVGDRVTITCRASQSILTYLNWYQQKPGKAPKLVIYAATSRHSGVPSRFSGSGSGTDFTLTISSLQPEDFATYYCQQSYDSPLTFGGGTKVEIK , optical density read as 2.79

Query 368_G01 (antibody, V domains shown) VH: EVQLLESGGGLVQPGGSLRLSCAASGFTFSDYGMHWVRQAPGKGLEWVASINYNSGYTSYADSVKGRFTISRDNSKNTLYLQMNSLRAEDTAVYYCARSANWHDTALDYWGQGTLVTVSS VL: DIQMTQSPSSLSASVGDRVTITCRASQSILTYLNWYQQKPGKAPKLVIYAATSRASGVPSRFSGSGSGTDFTLTISSLQPEDFATYYCQQSYNLPLTFGGGTKVEIK yields optical density of 2.82

optical density in this record for 374_A07 (antibody, V domains shown) VH: EVQLLESGGGLVQPGGSLRLSCAASGFTFSSYSMNWVRQAPGKGLEWVSGINYNSGYKGYADSVKGRFTISRDNSKNTLYLQMNSLRAEDTAVYYCARSANWHDTALDYWGQGTLVTVSS VL: DIQMTQSPSSLSASVGDRVTITCRASQSILSYVNWYQQKPGKAPKLLIYAVTSRASGVPSRFSGSGSGTDFTLTISSLQPEDFATYYCQQSYDLPLTFGGGTKVEIK : 3.71

Just so you know, measured optical density for 368_A09 (antibody, V domains shown) VH: EVQLLESGGGLVQPGGSLRLSCAASGFTFDSYSMNWVRQAPGKGLEWVSGINYNGGYTSYADSVKGRFTISRDNSKNTLYLQMNSLRAEDTAVYYCARSANWHDTHLDYWGQGTLVTVSS VL: DIQMTQSPSSLSASVGDRVTITCRASQSILSYVNWYQQKPGKAPKLLIYAVTSRASGVPSRFSGSGSGTDFTLTISSLQPEDFATYYCQQSYDSPLTFGGGTKVEIK came out at 2.63

// optical density lookup, binder = 374_D01 (antibody, V domains shown) VH: EVQLLESGGGLVQPGGSLRLSCAASGFTFDSYSMNWVRQAPGKGLEWVSGINYNSGYKGYADSVKGRFTISRDNSKNTLYLQMNSLRAEDTAVYYCARSANWHDTALDYWGQGTLVTVSS VL: DIQMTQSPSSLSASVGDRVTITCRASQSIITYVNWYQQKPGKAPKLLIYAATSLASGVPSRFSGSGSGTDFTLTISSLQPEDFATYYCQQSYSSPLTFGGGTKVEIK , result: 3.58

// sample 374_C03 (antibody, V domains shown) VH: EVQLLESGGGLVQPGGSLRLSCAASGFTFDSYSMNWVRQAPGKGLEWVSGINYNSGYTSYADSVKGRFTISRDNSKNTLYLQMNSLRAEDTAVYYCARSANWHDTALDYWGQGTLVTVSS VL: DIQMTQSPSSLSASVGDRVTITCRASQSILTYLNWYQQKPGKAPKLLIYAATSRASGVPSRFSGSGSGTDFTLTISSLQPEDFATYYCQQSYDSPLTFGGGTKVEIK , its optical density was 3.61

Please fill in: optical density reported for 369_H05 (antibody, V domains shown) VH: EVQLLESGGGLVQPGGSLRLSCAASGFTFSSYGMNWVRQAPGKGLEWVANINYNGGYTGYADSVKGRFTISRDNSKNTLYLQMNSLRAEDTAVYYCARSANWHDTALDYWGQGTLVTVSS VL: DIQMTQSPSSLSASVGDRVTITCRASQSIVSYVNWYQQKPGKAPKLLIYAATSRASGVPSRFSGSGSGTDFTLTISSLQPEDFATYYCQQSYSNPLTFGGGTKVEIK = 3.34

Summary for this binder, 370_G11 (antibody, V domains shown) VH: EVQLLESGGGLVQPGGSLRLSCAASGFTFSSYSMNWVRQAPGKGLEWVASINYNSGYTSYADSVKGRFTISRDNSKNTLYLQMNSLRAEDTAVYYCARSANWHDTHLDYWGQGTLVTVSS VL: DIQMTQSPSSLSASVGDRVTITCRASQSIVSYLNWYQQKPGKAPKLVIYAATSRASGVPSRFSGSGSGTDFTLTISSLQPEDFATYYCQQSYSLPLTFGGGTKVEIK : optical density is 3.07

Value of optical density reported for the binder 373_C06 (antibody, V domains shown) VH: EVQLLESGGGLVQPGGSLRLSCAASGFTFSSYSMNWVRQAPGKGLEWVAGINYNGGYTGYADSVKGRFTISRDNSKNTLYLQMNSLRAEDTAVYYCARSANWHDTALDYWGQGTLVTVSS VL: DIQMTQSPSSLSASVGDRVTITCRASQSIVSYVNWYQQKPGKAPKLVIYAATSRASGVPSRFSGSGSGTDFTLTISSLQPEDFATYYCQQSYDTPLTFGGGTKVEIK is 3.53

So, 374_B04 (antibody, V domains shown) VH: EVQLLESGGGLVQPGGSLRLSCAASGFTFSSYSMNWVRQAPGKGLEWVSNINYNSGYTGYADSVKGRFTISRDNSKNTLYLQMNSLRAEDTAVYYCARSANWHDTALDYWGQGTLVTVSS VL: DIQMTQSPSSLSASVGDRVTITCRASQSIVSYLNWYQQKPGKAPKLLIYAVTSRASGVPSRFSGSGSGTDFTLTISSLQPEDFATYYCQQSYESPLTFGGGTKVEIK ? Its optical density was 3.64
